# test: Solubility in water and bio-relevant media at 37° C. (HPLC of filtrate, pH of filtrate, XRPD of filter cake)
# Assay type: physicochemical
# condition.set: pH of the filtrate, Water, 2 h
measure.name: PH 2 h
Form field (numeric): enter value without unit.

Entry Cc1nn(-c2cc(Cl)c(Oc3cc(C(C)C)c(=O)[nH]n3)c(Cl)c2)c(=O)[n-]c1=O.[K+] [Potassium salt Form 1] has what PH 2 h?
11.00

Now give it for Cc1nn(-c2cc(Cl)c(Oc3cc(C(C)C)c(=O)[nH]n3)c(Cl)c2)c(=O)[nH]c1=O [Free acid Form I] too.
6.59

Here is the next compound: Cc1nn(-c2cc(Cl)c(Oc3cc(C(C)C)c(=O)[nH]n3)c(Cl)c2)c(=O)[n-]c1=O.[Na+] [Sodium salt Form A]
10.81

Cool, now Cc1nn(-c2cc(Cl)c(Oc3cc(C(C)C)c(=O)[nH]n3)c(Cl)c2)c(=O)[n-]c1=O.[K+] [Potassium salt Form 2]
10.62
